measured-on: Alpha-1A adrenergic receptor (Homo sapiens)
Sequence (P35348 whole entry): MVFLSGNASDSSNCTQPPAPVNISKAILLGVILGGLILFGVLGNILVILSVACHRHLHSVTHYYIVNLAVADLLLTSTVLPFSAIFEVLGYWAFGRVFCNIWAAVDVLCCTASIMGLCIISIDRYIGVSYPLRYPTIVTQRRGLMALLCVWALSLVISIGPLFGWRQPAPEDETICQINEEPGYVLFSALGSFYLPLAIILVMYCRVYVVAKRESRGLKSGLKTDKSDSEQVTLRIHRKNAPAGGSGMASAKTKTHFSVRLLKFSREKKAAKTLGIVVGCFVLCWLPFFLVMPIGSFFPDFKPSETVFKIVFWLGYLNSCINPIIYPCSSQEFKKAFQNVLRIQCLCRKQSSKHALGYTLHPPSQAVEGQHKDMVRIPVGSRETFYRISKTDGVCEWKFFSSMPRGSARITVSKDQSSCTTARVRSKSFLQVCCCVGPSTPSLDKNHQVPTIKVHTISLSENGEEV
Type: functional, cell-based
Some compounds, each annotated with its measured AC50.

compound: O=C(CCC/C=C\C[C@@H]1[C@@H](CC[C@@H](O)CCc2ccccc2)[C@H](O)C[C@@H]1O)OCCCCO[N+](=O)[O-]
AC50: > 10 µM
//
compound: CC(COc1ccccc1)NC(C)C(O)c1ccc(O)cc1 (configuration not stated)
AC50: 1.04 µM
//
compound: COc1c2occc2c(OC)c2c(=O)cc(C)oc12
AC50: > 30 µM
//
compound: CC(C(=O)O)c1cccc(Oc2ccccc2)c1 (configuration not stated)
AC50: > 30 µM
//
compound: CCC[C@H](N[C@@H](C)C(=O)N1[C@H](C(=O)O)C[C@@H]2CCCC[C@@H]21)C(=O)OCC
AC50: > 30 µM

Consider the compound shown here: O=C(O)CN(CCN(CC(=O)O)CC(=O)O)CCN(CC(=O)O)CC(=O)O What is its recorded AC50?
1.28 µM

Form field: reported AC50 of C[N+]1(C)CCCC(OC(=O)C(O)(c2ccccc2)c2ccccc2)C1 (configuration not stated) [MEPENZOLATE]
> 30 µM

# input compound: C[C@H]1O[C@@H](O[C@H]2CC[C@@]3(C)[C@H](CC[C@@H]4[C@@H]3C[C@@H](O)[C@]3(C)[C@@H](C5=CC(=O)OC5)CC[C@]43O)C2)C[C@H](O)[C@@H]1O[C@H]1C[C@H](O)[C@H](O[C@H]2C[C@H](O)[C@H](O[C@@H]3O[C@H](CO)[C@@H](O)[C@H](O)[C@H]3O)[C@@H](C)O2)[C@@H](C)O1 [DESLANOSIDE] ; wanted: its AC50
> 30 µM

# query: AC50 of entry C=N[C@@H](C(=O)N[C@@H]1C(=O)N2[C@@H]1SC(C)(C)[C@@H]2C(=O)O)c1ccccc1
> 30 µM

Please look up its AC50: C[N+](C)(CCCCCC[N+](C)(C)C1c2ccccc2-c2ccccc21)C1c2ccccc2-c2ccccc21
3.09 µM

* * *

measured-on: Mu-type opioid receptor (Homo sapiens, UniProt P35372)
Sequence (P35372 whole entry): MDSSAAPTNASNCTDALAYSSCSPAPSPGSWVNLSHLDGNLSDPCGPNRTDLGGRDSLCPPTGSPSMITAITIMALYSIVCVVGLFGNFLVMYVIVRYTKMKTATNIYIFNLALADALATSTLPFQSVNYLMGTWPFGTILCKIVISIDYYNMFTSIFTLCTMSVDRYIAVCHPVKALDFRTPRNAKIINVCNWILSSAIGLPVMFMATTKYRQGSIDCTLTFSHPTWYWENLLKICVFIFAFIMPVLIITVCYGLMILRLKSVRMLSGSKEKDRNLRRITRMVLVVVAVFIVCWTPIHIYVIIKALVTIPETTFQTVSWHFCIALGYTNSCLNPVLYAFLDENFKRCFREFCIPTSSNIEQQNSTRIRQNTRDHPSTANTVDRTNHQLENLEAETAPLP
Measured AC50 by item

Previously resolved entries follow.
compound: O=C(O)Cc1ccccc1Oc1ccc(Cl)cc1Cl [FENCLOFENAC]
AC50: > 30 µM

compound: Cc1oc(=O)oc1COC(=O)[C@@H]1N2C(=O)[C@@H](NC(=O)[C@H](N)c3ccccc3)[C@H]2SC1(C)C [LENAMPICILLIN]
AC50: > 30 µM

What value of AC50 has been recorded for this entry: CC(=O)O[C@H]1Cc2ccccc2N(C(N)=O)c2ccccc21 [ESLICARBAZEPINE ACETATE]
> 30 µM

* * *

Below are compounds with their AC50 as measured on Glutamate receptor ionotropic, NMDA 1 (Rattus norvegicus, UniProt P35439).

smiles-text: CC(C)(O/N=C(\C(=O)N[C@@H]1C(=O)N2C(C(=O)[O-])=C(C[n+]3ccccc3)CS[C@H]12)c1csc(N)n1)C(=O)O
measured-on: Glutamate receptor ionotropic, NMDA 1 (Rattus norvegicus, UniProt P35439)
AC50: > 30 µM
//
smiles-text: CC(C)NC[C@H](O)COc1ccc(CC(N)=O)cc1
measured-on: Glutamate receptor ionotropic, NMDA 1 (Rattus norvegicus, UniProt P35439)
AC50: > 10 µM

Please look at the following compound next.
Find the measured AC50: item NNC(=O)c1ccncc1 , target or system Glutamate receptor ionotropic, NMDA 1 (Rattus norvegicus, UniProt P35439). Further: assay procedure not described here.
> 30 µM

* * *

measured-on: Muscarinic acetylcholine receptor M2 (Homo sapiens)
Sequence (P08172 whole entry): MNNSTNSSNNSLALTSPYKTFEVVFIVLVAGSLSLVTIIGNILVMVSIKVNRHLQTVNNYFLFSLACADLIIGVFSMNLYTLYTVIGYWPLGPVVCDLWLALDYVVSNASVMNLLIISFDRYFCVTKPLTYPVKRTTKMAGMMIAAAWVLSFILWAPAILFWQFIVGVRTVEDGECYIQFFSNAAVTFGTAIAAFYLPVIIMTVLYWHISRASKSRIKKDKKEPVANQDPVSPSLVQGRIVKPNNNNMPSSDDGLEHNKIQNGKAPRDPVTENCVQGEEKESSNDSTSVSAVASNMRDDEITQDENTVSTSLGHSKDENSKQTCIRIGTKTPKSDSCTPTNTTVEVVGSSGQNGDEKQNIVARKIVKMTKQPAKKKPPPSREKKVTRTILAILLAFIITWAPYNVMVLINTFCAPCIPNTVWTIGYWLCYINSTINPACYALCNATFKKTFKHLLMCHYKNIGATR
Format: functional, cell-based
Here the recorded AC50 is given for each entry.

Answered examples (4):
compound: CC(C)(Oc1ccc(CCNC(=O)c2ccc(Cl)cc2)cc1)C(=O)O [BEZAFIBRATE]
quantity-kind: AC50
result: > 10 µM
//
compound: COc1cc(C(C)=O)ccc1OCCCN1CCC(c2noc3cc(F)ccc23)CC1
quantity-kind: AC50
result: 8.3 µM
//
compound: CNC[C@H](O)c1ccc(O)c(O)c1 [EPINEPHRINE]
quantity-kind: AC50
result: > 30 µM
//
compound: CC(O)(CS(=O)(=O)c1ccc(F)cc1)C(=O)Nc1ccc(C#N)c(C(F)(F)F)c1 (stereo not given) [BICALUTAMIDE]
quantity-kind: AC50
result: > 10 µM

Please turn your attention to the following entry.
Tell me the measured AC50 of Cn1cc(C(=O)[C@@H]2CCc3nc[nH]c3C2)c2ccccc21 , please.
> 30 µM

* * *

Here the recorded AC50 is given for each entry.
measured-on: Muscarinic acetylcholine receptor M1 (Homo sapiens, UniProt P11229)
Sequence (P11229 whole entry): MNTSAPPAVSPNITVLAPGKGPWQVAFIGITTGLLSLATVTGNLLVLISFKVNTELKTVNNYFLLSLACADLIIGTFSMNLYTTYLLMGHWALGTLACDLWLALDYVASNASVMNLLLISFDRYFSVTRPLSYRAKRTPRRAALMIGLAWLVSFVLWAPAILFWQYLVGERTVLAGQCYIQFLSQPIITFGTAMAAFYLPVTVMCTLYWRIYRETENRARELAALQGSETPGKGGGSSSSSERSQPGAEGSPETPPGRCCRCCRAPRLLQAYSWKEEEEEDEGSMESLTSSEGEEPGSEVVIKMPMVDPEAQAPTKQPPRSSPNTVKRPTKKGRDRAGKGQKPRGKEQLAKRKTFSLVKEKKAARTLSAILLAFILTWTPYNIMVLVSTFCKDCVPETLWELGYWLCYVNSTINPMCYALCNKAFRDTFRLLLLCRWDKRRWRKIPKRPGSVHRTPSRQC
Assay type: functional

compound: CCC(=O)O[C@](Cc1ccccc1)(c1ccccc1)[C@H](C)CN(C)C
AC50: > 10 µM

I would be grateful if you could share the reported AC50 for CCCc1nc2c(C)cc(-c3nc4ccccc4n3C)cc2n1Cc1ccc(-c2ccccc2C(=O)O)cc1 .
> 30 µM

Reported AC50 for CC(Cc1cccc(C(F)(F)F)c1)NCCOC(=O)c1ccccc1 (stereo not given) : what is it?
> 30 µM

* * *

AC50 values recorded for Adenosine receptor A1 (Homo sapiens, UniProt P30542)

Worked cases, answers included:
compound: Cc1ccc(C)c(OCCCC(C)(C)C(=O)O)c1 [GEMFIBROZIL]
AC50: > 30 µM
//
compound: CC(C)[C@H](N)C(=O)OCCOCn1cnc2c(=O)[nH]c(N)nc21 [VALACYCLOVIR]
AC50: > 30 µM
//
compound: COc1ccc2cc(CCC(C)=O)ccc2c1 [NABUMETONE]
AC50: > 10 µM
//
compound: Cc1cc(C)nc(NS(=O)(=O)c2ccc(N)cc2)n1 [SULFAMETHAZINE]
AC50: > 10 µM
//
compound: CCC1(c2ccc(N)cc2)CCC(=O)NC1=O (stereo not drawn) [AMINOGLUTETHIMIDE]
AC50: > 30 µM

Param readout = AC50; param system = Adenosine receptor A1 (Homo sapiens, UniProt P30542); param query = CC(=O)c1ccc(S(=O)(=O)NC(=O)NC2CCCCC2)cc1 [ACETOHEXAMIDE] ; response: value; further: assay procedure not described here
Sequence (P30542 whole entry): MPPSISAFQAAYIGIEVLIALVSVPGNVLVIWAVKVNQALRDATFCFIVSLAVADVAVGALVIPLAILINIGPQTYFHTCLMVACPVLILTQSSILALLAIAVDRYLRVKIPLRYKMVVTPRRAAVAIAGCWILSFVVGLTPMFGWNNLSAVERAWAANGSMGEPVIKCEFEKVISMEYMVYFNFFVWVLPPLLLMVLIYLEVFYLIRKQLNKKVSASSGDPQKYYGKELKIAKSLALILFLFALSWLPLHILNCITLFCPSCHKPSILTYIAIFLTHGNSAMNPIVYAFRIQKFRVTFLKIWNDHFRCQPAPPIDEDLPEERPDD
> 10 µM

Hello, I am looking for reported AC50 with Adenosine receptor A1 (Homo sapiens, UniProt P30542) for CC1=C(C(=O)OC(C)C)C(c2cccc([N+](=O)[O-])c2)C(C(=O)OC2CN(C(c3ccccc3)c3ccccc3)C2)=C(N)N1 (stereo not drawn) [AZELNIDIPINE] . Could you help?
> 30 µM

Record lookup: for Adenosine receptor A1 (Homo sapiens, UniProt P30542), what AC50 belongs to CC(CN(C)C)C(C)(O)Cc1ccc(Cl)cc1 (stereo not drawn) [CLOBUTINOL] ?
> 30 µM

Observed AC50 on Adenosine receptor A1 (Homo sapiens, UniProt P30542) for O=C(/C=C/c1cccc(S(=O)(=O)Nc2ccccc2)c1)NO [BELINOSTAT] , please.
> 30 µM

Form: Entry = CC[C@@H](CO)NC(=O)[C@@H]1C=C2c3cccc4c3c(cn4C)C[C@H]2N(C)C1 [METHYSERGIDE] | System = Adenosine receptor A1 (Homo sapiens, UniProt P30542) | AC50 = ____; further: assay procedure not described here
> 30 µM

Fill in the recorded AC50 for this compound, with Adenosine receptor A1 (Homo sapiens, UniProt P30542) as test system: C[N+]1(C)CCC(=C(c2ccccc2)c2ccccc2)CC1
> 30 µM

Checklist item: AC50 tested on Adenosine receptor A1 (Homo sapiens, UniProt P30542), entry O=c1[nH]c2ccccc2n1CCCN1CCN(C(c2ccccc2)c2ccccc2)CC1 [OXATOMIDE] , value?; further: assay procedure not described here
> 30 µM

Request - read-out AC50 | tested on Adenosine receptor A1 (Homo sapiens, UniProt P30542) | compound OC[C@H]1O[C@@H](n2cnc3c2NC=NC[C@H]3O)C[C@@H]1O [PENTOSTATIN]; further: assay procedure not described here
0.41 µM

* * *

Measured AC50 by item
measured-on: UniProt P21728
Sequence (P21728 whole entry): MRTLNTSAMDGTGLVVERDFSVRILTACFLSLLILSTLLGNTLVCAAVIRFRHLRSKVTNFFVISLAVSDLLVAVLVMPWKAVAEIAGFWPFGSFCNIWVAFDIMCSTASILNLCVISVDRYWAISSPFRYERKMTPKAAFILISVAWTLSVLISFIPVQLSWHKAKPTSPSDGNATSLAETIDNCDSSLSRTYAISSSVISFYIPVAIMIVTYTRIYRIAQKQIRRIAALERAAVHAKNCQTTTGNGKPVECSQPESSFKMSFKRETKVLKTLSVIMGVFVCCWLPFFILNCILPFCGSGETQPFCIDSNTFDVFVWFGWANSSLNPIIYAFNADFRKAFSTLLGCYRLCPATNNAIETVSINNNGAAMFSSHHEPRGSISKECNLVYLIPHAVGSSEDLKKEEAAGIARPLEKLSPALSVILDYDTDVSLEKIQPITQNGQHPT
Assay type: functional, cell-based

Name the reported AC50 value associated with the molecule COc1ccc(CN2CCN(C(c3ccc(F)cc3)c3ccc(F)cc3)CC2)c(OC)c1OC
> 30 µM

* * *

This section presents compounds with their documented AC50 values.
measured-on: B2 bradykinin receptor (Homo sapiens)
Sequence (P30411 whole entry): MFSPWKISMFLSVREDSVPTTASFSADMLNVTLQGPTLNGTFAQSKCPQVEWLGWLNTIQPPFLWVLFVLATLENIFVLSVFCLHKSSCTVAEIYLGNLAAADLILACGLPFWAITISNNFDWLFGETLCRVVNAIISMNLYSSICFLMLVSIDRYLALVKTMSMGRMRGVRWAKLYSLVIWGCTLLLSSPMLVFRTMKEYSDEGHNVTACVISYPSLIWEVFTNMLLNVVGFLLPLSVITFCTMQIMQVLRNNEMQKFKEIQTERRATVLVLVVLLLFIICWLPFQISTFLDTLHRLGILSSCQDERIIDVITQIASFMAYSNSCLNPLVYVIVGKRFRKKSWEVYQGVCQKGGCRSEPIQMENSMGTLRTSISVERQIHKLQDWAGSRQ

Consider the worked cases shown below.
compound: CC[C@@H](CO)NC(=O)[C@@H]1C=C2c3cccc4c3c(cn4C)C[C@H]2N(C)C1 [METHYSERGIDE]
result: > 30 µM
--
compound: CCCN(CCC)S(=O)(=O)c1ccc(C(=O)O)cc1
result: > 10 µM
--
compound: CCc1nc(N)nc(N)c1-c1ccc(Cl)cc1
result: > 10 µM
--
compound: C[C@]12CCC(=O)C[C@@H]1CC[C@@H]1[C@@H]2CC[C@]2(C)[C@@H](O)CC[C@@H]12
result: > 30 µM
--
compound: Cn1cc(C(=O)[C@@H]2CCc3nc[nH]c3C2)c2ccccc21
result: > 30 µM
--
compound: CO/N=C(\C(=O)N[C@@H]1C(=O)N2C(C(=O)O)=CCS[C@H]12)c1csc(N)n1
result: > 10 µM
--
compound: CCOC(=O)[C@@H](N)Cc1ccc(-c2cc(O[C@H](c3ccc(Cl)cc3-n3ccc(C)n3)C(F)(F)F)nc(N)n2)cc1
result: > 30 µM
--
compound: O=C(O)COCCN1CCN(C(c2ccccc2)c2ccc(Cl)cc2)CC1 (stereo unspecified)
result: > 30 µM
--
compound: O=C(O)c1ccc(NC(=O)[C@H](Cc2ccc(O)cc2)NC(=O)c2ccccc2)cc1 [BENTIROMIDE]
result: > 10 µM
--
compound: O=C1OC(OC(=O)c2cccnc2Nc2cccc(C(F)(F)F)c2)c2ccccc21 (stereo unspecified) [TALNIFLUMATE]
result: > 30 µM

Please look up its AC50: C[C@]12C=CC(=O)C=C1CC[C@@H]1[C@@H]2CC[C@]2(C)OC(=O)CC[C@@H]12
> 10 µM

What value of AC50 has been recorded for this entry: CCCN1CC(NS(=O)(=O)N(CC)CC)CC2Cc3c(O)cccc3CC21 (stereo unspecified) [QUINAGOLIDE]
> 30 µM

Value lookup for AC50; key = CCOC(=O)c1c(CSc2ccccc2)n(C)c2cc(Br)c(O)c(CN(C)C)c12
> 30 µM

AC50 for CN1CCN=C(c2ccccc2)c2cc(Cl)ccc21 ?
> 30 µM

I have this compound here, Cc1nc(Nc2ncc(C(=O)Nc3c(C)cccc3Cl)s2)cc(N2CCN(CCO)CC2)n1 , and I need its recorded AC50.
> 30 µM

Need AC50, item CO/N=C(\C(=O)N[C@@H]1C(=O)N2C(C(=O)O)=C(CSc3nc(=O)c(=O)[nH]n3C)CS[C@H]12)c1csc(N)n1
> 30 µM

If you can, please state the reported AC50 value of NC(=O)NC(=O)Cc1ccccc1 [PHENACEMIDE] .
> 10 µM

For the compound CCCNC(=O)NS(=O)(=O)c1ccc(Cl)cc1 [CHLORPROPAMIDE] , what AC50 is on record?
> 30 µM

Name the recorded AC50 for O=C(O)CCNC(=O)c1ccc(/N=N/c2ccc(O)c(C(=O)O)c2)cc1 [BALSALAZIDE] .
> 30 µM

Quick one: AC50 of CN(CCOc1ccc(CC2SC(=O)NC2=O)cc1)c1ccccn1 (stereo unspecified) ?
> 30 µM

# query: AC50 of entry O=C(O)Cc1ccccc1Oc1ccc(Cl)cc1Cl
> 30 µM

Would you mind telling me what AC50 value was observed for C[N+]1(C)CCC(=C(c2ccccc2)c2ccccc2)CC1 ?
> 30 µM

Need AC50, item O=C(O)c1cccnc1Nc1cccc(C(F)(F)F)c1
> 10 µM

Value lookup for AC50; key = COc1cc2[nH]c(C)c(CCN3CCN(c4ccccc4)CC3)c2cc1OC
> 30 µM

Recorded AC50 for CC(C(=O)O)c1ccc2oc(-c3ccc(Cl)cc3)nc2c1 (stereo unspecified) , please?
> 30 µM

Which AC50 value is on record for CCc1cc2c(s1)-n1c(C)nnc1CN=C2c1ccccc1Cl ?
> 30 µM

Numbers sourced from ChEMBL document CHEMBL5291721.
